System: MDA-MB-231
Test: Antiproliferative activity hormone-independent human MDA-MB-231 cells after 24 hrs by luminescent cell viability assay
Type: functional, cell-based
Conditions: MDA-MB-231, 24 h
pIC50: −log10 of the molar value.
attribute-measured: pIC50

molecule="Cc1cc(C)c2c(c1C)OC(C)(COc1ccc(CC3SC(=O)NC3=O)cc1)CC2 (racemic)" target_desc=MDA-MB-231 attribute_measured=pIC50 readout_number=4.91

(A) Cc1c(C)c2c(c(C)c1OC(=O)CCCC[C@@H]1SC[C@@H]3NC(=O)N[C@@H]31)CCC(C)(COc1ccc(CC3SC(=O)NC3=O)cc1)O2 (mixture of isomers)
(B) Cc1cc(C)c2c(c1C)OC(C)(COc1ccc(/C=C3\SC(=O)NC3=O)cc1)CC2 (racemic)
Request: Lab log: flag the item ( A or B ) with the smaller pIC50 figure. Selection: enter the item's label.
Result: B

---

Tested on: MDA-MB-231
Assay: Antiproliferative activity hormone-independent human MDA-MB-231 cells after 24 hrs by luminescent cell viability assay
Type: functional, cell-based
Details: MDA-MB-231, 24 h
pIC50: −log10 of the molar value.
attribute-measured: pIC50

compound="Cc1c(C)c2c(c(C)c1OC(=O)OC(C)(C)C)CCC(C)(COc1ccc(/C=C3\\SC(=O)NC3=O)cc1)O2 (racemic)" readout_number=5.48
compound="Cc1c(C)c2c(c(C)c1OC(=O)CCCCCCCNC(=O)CCCC[C@@H]1SC[C@@H]3NC(=O)N[C@@H]31)CCC(C)(COc1ccc(/C=C3\\SC(=O)NC3=O)cc1)O2 (stereo partly specified)" readout_number=5.43
compound="Cc1c(C)c2c(c(C)c1OC(=O)OC(C)(C)C)CCC(C)(COc1ccc(CC3SC(=O)NC3=O)cc1)O2 (racemic)" readout_number=5.42
compound="Cc1c(C)c2c(c(C)c1OC(=O)CCCCCCCNC(=O)OC(C)(C)C)CCC(C)(COc1ccc(/C=C3\\SC(=O)NC3=O)cc1)O2 (racemic)" readout_number=5.49
compound="Cc1c(C)c2c(c(C)c1OC(=O)CCCC[C@@H]1SC[C@@H]3NC(=O)N[C@@H]31)CCC(C)(COc1ccc(/C=C3\\SC(=O)NC3=O)cc1)O2 (mixture of isomers)" readout_number=5.46

---

Test: Cytotoxicity against human hepatocytes assessed as cell viability at 100 uM after 90 mins by MTT assay relative to control
Format: cell-based, Hepatocyte
Settings: read-out: Activity
// viability at 1.5 h, 100 µM lookup, one value per entry
Kindly answer with a numeric value in %, unit omitted.

Some molecules with recorded viability at 1.5 h, 100 µM:
molecule="Cc1c(C)c2c(c(C)c1OC(=O)CCCCCCCNC(=O)OC(C)(C)C)CCC(C)(COc1ccc(/C=C3\\SC(=O)NC3=O)cc1)O2 (racemic)" attribute_measured="viability at 1.5 h, 100 µM" readout_number=79
molecule="CC(=O)NCCNC(=O)CCC(=O)Oc1c(C)c(C)c2c(c1C)CCC(C)(COc1ccc(/C=C3\\SC(=O)NC3=O)cc1)O2 (racemic)" attribute_measured="viability at 1.5 h, 100 µM" readout_number=75
molecule="Cc1cc(C)c2c(c1C)OC(C)(COc1ccc(/C=C3\\SC(=O)NC3=O)cc1)CC2 (racemic)" attribute_measured="viability at 1.5 h, 100 µM" readout_number=84

Request: Given the molecule Cc1c(C)c2c(c(C)c1OC(=O)OC(C)(C)C)CCC(C)(COc1ccc(CC3SC(=O)NC3=O)cc1)O2 (racemic) , what is its reported viability at 1.5 h, 100 µM?
Result: 47

Request: Given the molecule Cc1c(C)c2c(c(C)c1OC(=O)CCCCCCCNC(=O)CCCC[C@@H]1SC[C@@H]3NC(=O)N[C@@H]31)CCC(C)(COc1ccc(/C=C3\SC(=O)NC3=O)cc1)O2 (stereo partly specified) , what is its reported viability at 1.5 h, 100 µM?
Result: 61

Request: Given the molecule Cc1c(C)c2c(c(C)c1OC(=O)CCC(=O)O)CCC(C)(COc1ccc(CC3SC(=O)NC3=O)cc1)O2 (racemic) , what is its reported viability at 1.5 h, 100 µM?
Result: 76

Request: Given the molecule Cc1c(C)c2c(c(C)c1OC(=O)OC(C)(C)C)CCC(C)(COc1ccc(/C=C3\SC(=O)NC3=O)cc1)O2 (racemic) , what is its reported viability at 1.5 h, 100 µM?
Result: 75

Request: Given the molecule Cc1c(C)c2c(c(C)c1OC(=O)CCC(=O)O)CCC(C)(COc1ccc(/C=C3\SC(=O)NC3=O)cc1)O2 (racemic) , what is its reported viability at 1.5 h, 100 µM?
Result: 54

Request: Given the molecule Cc1c(C)c2c(c(C)c1O)CCC(C)(COc1ccc(/C=C3\SC(=O)NC3=O)cc1)O2 (racemic) , what is its reported viability at 1.5 h, 100 µM?
Result: 63

Request: Given the molecule Cc1c(C)c2c(c(C)c1O)CCC(C)(COc1ccc(CC3SC(=O)NC3=O)cc1)O2 (stereo unspecified) , what is its reported viability at 1.5 h, 100 µM?
Result: 52

Request: Given the molecule Cc1cc(C)c2c(c1C)OC(C)(COc1ccc(CC3SC(=O)NC3=O)cc1)CC2 (racemic) , what is its reported viability at 1.5 h, 100 µM?
Result: 66

All values here come from ChEMBL document CHEMBL1955813.
